// provenance: PubChem BioAssay (NCI)

Tested on: NCI-H522 lung
experiment_notes: NCI tumour cell line growth inhibition, 48 h; in the data active means GI50 below about 0.43 µM; inactive means the rest
Classes to choose from: active, inactive

Some solved cases for reference:
COc1cc(/C=C2\CN(S(=O)(=O)c3ccc(C)cc3)C/C(=C\c3cc(CN4CCCC4)c(O)c(OC)c3)C2=O)cc(CN2CCCC2)c1O :: inactive
O=[N+]([O-])c1cc([N+](=O)[O-])c(C(F)(F)F)cc1NN=C(c1ccc(O)cc1)c1ccc(O)cc1 :: inactive
COc1ccc(C(c2cc(OC)c(OC)c(OC)c2)n2cncn2)cc1O (centres undefined) :: active
OC(c1cc(C(F)(F)F)nc2c(C(F)(F)F)cccc12)C1CCCCN1 (centres undefined) :: inactive
[O-][Cl+3]([O-])([O-])[O-].[O]=[Ru]=[O].c1ccc(-c2ccccn2)nc1.c1ccc(-c2ccccn2)nc1 :: inactive

Could you now consider this next compound?
Req: Each compound tested received a call. Report the one for CCNC(=O)C#Cc1ccc2c(C(=Nc3ccc(CN(C)C)cc3)c3ccccc3)c(O)[nH]c2c1 .
Resp: inactive
